Tested on: LXFL 529
Test: NCI tumour cell line growth inhibition, 48 h
Activity calls are given as the source filed them. No stated cut-off is given here; in the data, active = GI50 up to about 1.1 µM and inactive = higher.
# key: entry, value: GI50
endpoint label: GI50

{"molecule": "Cc1ccc(O)c(C(=O)CCCC(=O)c2cc(C)ccc2O)c1", "endpoint label": "GI50", "value": "> 100 µM (inactive)"}
{"molecule": "COC(=O)C(=C\\Sc1ccccc1)/C=C/C(=O)OC(C)(C)C", "endpoint label": "GI50", "value": "3.5 µM (inactive)"}
{"molecule": "C#CCNC(=O)NC(CCCCNC(=O)OCc1ccccc1)C(=O)OCc1ccccc1 (stereo not given)", "endpoint label": "GI50", "value": "> 100 µM (inactive)"}
{"molecule": "Cc1ccccc1NC(=O)C1C(=O)N(c2ccccc2C)C(=O)/C1=N\\NC(N)=S (stereo not given)", "endpoint label": "GI50", "value": "> 100 µM (inactive)"}
{"molecule": "COc1ccc(-c2nc(Sc3c([N+](=O)[O-])ncn3C)n[nH]2)cc1", "endpoint label": "GI50", "value": "3.12 µM (inactive)"}

---

Tested on: MDA-MB-435
Assay: NCI tumour cell line growth inhibition, 48 h
The source made the active and inactive calls. Cut-off read from the data, not from the text of the source: active = GI50 up to about 1.1 µM and inactive = higher.
Labels: T (active), F (inactive)

{"compound": "CCOC(=O)C(=O)NNc1nc2c(s1)C(=O)c1ccccc1C2=O", "class name": "F"}
{"compound": "CCCCN(C)C(=O)C1=C(C)NC(C)=C(C(=O)N(C)CCCC)C1", "class name": "F"}
{"compound": "CC(=O)/C=C1\\Nc2ccccc2N\\C1=C/C(C)=O", "class name": "F"}
{"compound": "CCC1(C)C=Cc2c(cc(O)c3c(=O)c4ccccc4n(C)c23)O1 (stereo unspecified)", "class name": "F"}
{"compound": "CN1CCN(C(=O)c2cn(Cc3cncn3Cc3ccc4c(c3)OCO4)cc2-c2cccc3ccccc23)CC1", "class name": "T"}
{"compound": "CN(C)CC1CCC/C(=C\\c2ccc(OC(=O)/C=C/c3ccc(Cl)cc3)cc2)C1=O (stereo unspecified)", "class name": "F"}
{"compound": "Cc1ccc(-c2n[nH]c(=O)n2NC(=O)c2ccccc2C(=O)O)cc1", "class name": "F"}
{"compound": "CCN(CC(=O)O)CC(=O)O", "class name": "F"}
{"compound": "N#CC1(C2SCC[S+]2[O-])C2=C(C(=O)c3ccccc3C2=O)N2CCCC21 (stereo unspecified)", "class name": "T"}
{"compound": "Cn1c2c(c3ccccc31)CCN1OCC=C[C@@H](C(=O)O)[C@@H]21", "class name": "F"}
{"compound": "Nc1ccc(CCSSCCc2ccc(N)cc2)cc1", "class name": "F"}
{"compound": "O=C1C2=C(CC3=C(C2)CS(=O)(=O)C3)C(=O)C2=C1CC1=C(C2)CS(=O)(=O)C1", "class name": "F"}
{"compound": "CC(C)C[C@H](NC(=O)[C@H](Cc1ccc(F)cc1)NC(=O)c1ccccn1)B(O)O", "class name": "T"}
{"compound": "NCCC(=O)NC(Cc1c[nH]cn1)C(=O)O (stereo unspecified)", "class name": "F"}
{"compound": "NS(=O)(=O)c1ccc(NNc2c3ccccc3nc3ccccc23)cc1", "class name": "F"}
{"compound": "Oc1ccc2ccccc2c1CCc1c(O)ccc2ccccc12", "class name": "F"}
{"compound": "CN(C)c1ccc(/N=C2/C=CC(=C(C#N)C#N)c3ccccc32)cc1", "class name": "T"}
{"compound": "COc1ccc2c(c1)OCC1(O)Cc3ccccc3OC21 (stereo unspecified)", "class name": "F"}
{"compound": "O=c1[nH]c(=O)n(C2OC(CO)C(O)C2O)cc1OCCCc1ccccc1 (stereo unspecified)", "class name": "F"}
{"compound": "CN(C)CCn1c(=O)c2ccc(NCCCN(C)CCCNc3ccc4c(=O)n(CCN(C)C)c(=O)n5c6ccc([N+](=O)[O-])cc6c(=O)c3c45)c3c(=O)c4cc([N+](=O)[O-])ccc4n(c1=O)c23", "class name": "T"}
{"compound": "CN(C)c1ccc(/C=C2\\N=C(N/N=C/c3ccc(N(C)C)cc3)NC2=O)cc1", "class name": "F"}
